Test system: ACHN renal
Assay Details: NCI-60 one-dose screen, 48 h
Assay Conditions: 10 µM unless noted
About 83,000 compounds went through this panel and 20% of them were active in at least one assay; those are over-represented in the sample as a whole. Active and inactive are the calls of the source. The calls were made as follows: active = growth percent below 10; inactive = the rest.
Tick one outcome: active, inactive

Solved entries (count: 3):
Which outcome was entered for the compound `O=C(Nc1ccc(-n2ccc3c(NC(=O)c4ccccc4)ncnc32)cc1)c1ccc(Cl)c(C(F)(F)F)c1` in this test?
inactive

I'd appreciate the recorded outcome for `CN(C)c1ccc(/C=c2\s/c(=C\C(=O)C(C)(C)C)[nH]c2=O)cc1` from this test.
inactive

Tell me the recorded outcome of this test for `COc1ccc(/C=C2\CS(=O)(=O)C/C(=C\c3ccc(OC)cc3)C2=O)cc1` .
active

***
Please state the recorded outcome for this compound: `COc1ccc(-c2nn(-c3ccc(NC(=O)Nc4cc(C(F)(F)F)cc(C(F)(F)F)c4)cc3)cc2-c2ccncc2)cc1Cl`
inactive

Hi, do you know how `c1ccc2nc(Cn3cc[n+](Cc4ccc5ccccc5n4)c3)ccc2c1` came out in this test?
inactive

Every entry's value here was drawn from PubChem BioAssay (NCI).
